The measured values listed here are drawn from patent US12171842B2.

experiment-notes: Cell viability (MTT) and EC50, HFF
Type: cell-based, human
details: human, HFF cells (non-cancerous human foreskin fibroblasts); HFF, third dose (0.1 mg/ml nanocomposite; 0.025 mg/ml curcumin), 48 h, versus untreated control
Procedure: Human mammary adenocarcinoma (MCF7) and the non-cancerous human foreskin fibroblasts (HFF) cell lines were used to assess the cytotoxic effect of the prepared compounds. […] To assess the compounds' cytotoxicity, 3-(4,5-dimethylthiazol-2-yl)-2,5-diphenyltetrazolium bromide (MTT), a cell viability assay, was used. […] The difference in color intensity was measured by SYNERGY-neo2 BioTek ELISA reader at 570 nm as a measuring wavelength. […] Cell viability was calculated using the following equation (1): […]
assay-metric: viability at 48 h, 0.025 mg/ml (%)
Just the number in %, nothing appended.

Lookup: Would you kindly share the measured viability at 48 h, 0.025 mg/ml for COc1cc(/C=C/C(=O)CC(=O)/C=C/c2ccc(O)c(OC)c2)ccc1O ?
Found: 84.1
